tested on: leukotriene E4-induced bronchoconstriction; assay: Guinea Pig Bronchoconstriction, In Vivo (leukotriene E4 challenge; drug i.v. or oral); conditions: Cavia porcellus, po; 100 mg/kg p.o., 2 hours prior to leukotriene E4 challenge
Measured endpoint: inhibition in vivo at 100 mg/kg (%)
Numbers only, in %.

- Smiles record: "CCCc1c(OCCOCCOc2c(C(C)=O)ccc(OCC(=O)O)c2CCC)ccc(C(C)=O)c1O"
  Unit descriptor: "%"
  Reported measurement: 26
- Smiles record: "CCCc1c(OCCCOc2c(C(C)=O)ccc(OCC(=O)O)c2CCC)ccc(C(C)=O)c1O"
  Unit descriptor: "%"
  Reported measurement: 52

We now examine a further compound.
Query string: Quick check: inhibition in vivo at 100 mg/kg of CCCc1c(OCCCCCOc2c(C(C)=O)ccc(OCCCC(=O)O)c2CCC)ccc(C(C)=O)c1O ?
Result string: 84

----------
test: LD50; conditions: in vivo, ip; species not given; read-out: LD50 i.p.
Mark Fulfilled only for LD50 values smaller than 200 mg/kg; exact matches and larger values are Not fulfilled.

- Smiles record: "CCCc1c(OCCCCCOc2c(C(C)=O)ccc(OCC(=O)O)c2CCC)ccc(C(C)=O)c1O"
  Qualitative label: "Fulfilled"
- Smiles record: "CCCc1c(OCCOCCOCCOc2c(C(C)=O)ccc(OCC(=O)O)c2CCC)ccc(C(C)=O)c1O"
  Qualitative label: "Fulfilled"
- Smiles record: "CCCc1c(OCCOCCOc2c(C(C)=O)ccc(OCC(=O)O)c2CCC)ccc(C(C)=O)c1O"
  Qualitative label: "Fulfilled"
- Smiles record: "CCCc1c(OCCCOc2c(C(C)=O)ccc(OCC(=O)O)c2CCC)ccc(C(C)=O)c1O"
  Qualitative label: "Fulfilled"

Next, consider the following compound.
Query string: Quick check: LD50 of CCCc1c(OCCCOc2c(C(C)=O)ccc(OCCCC(=O)O)c2CCC)ccc(C(C)=O)c1O under 200 mg/kg?
Result string: Not fulfilled

----------
tested on: leukotriene E4-induced bronchoconstriction; test: Guinea Pig Bronchoconstriction, In Vivo (leukotriene E4 challenge; drug i.v. or oral); settings: Cavia porcellus, po; 100 mg/kg p.o., 2 hours prior to leukotriene E4 challenge
Class y: inhibition in vivo at 100 mg/kg at least 60%. Class n: inhibition in vivo at 100 mg/kg below 60%.

- Molecule: "CCCc1c(OCCCCCOc2c(C(C)=O)ccc(OCC(=O)O)c2CCC)ccc(C(C)=O)c1O"
  Qualitative label: "n"
- Molecule: "CCCc1c(OCCCOc2c(C(C)=O)ccc(OCCCC(=O)O)c2CCC)ccc(C(C)=O)c1O"
  Qualitative label: "y"
- Molecule: "CCCc1c(OCCCOCCCOc2c(C(C)=O)ccc(OCCCC(=O)O)c2CCC)ccc(C(C)=O)c1O"
  Qualitative label: "n"
- Molecule: "CCCc1c(OCCOCCOCCOc2c(C(C)=O)ccc(OCC(=O)O)c2CCC)ccc(C(C)=O)c1O"
  Qualitative label: "n"

Next item in the queue.
Query string: Confirm if inhibition in vivo at 100 mg/kg reported for the molecule CCCc1c(OCC(O)COc2c(C(C)=O)ccc(OCC(=O)O)c2CCC)ccc(C(C)=O)c1O (racemic) is 60% or above.
Result string: n

----------
test system: leukotriene E4-induced bronchoconstriction; assay: Guinea Pig Bronchoconstriction, In Vivo (Aerosol), duration of action; settings: 1% aerosol; time for % inhibition to fall below 40%
Outcome: yes for Aerosol Duration of Action of at least 70 min; no for anything lower.

Past entries and their recorded results:
- Smiles record: "CCCc1c(OCCCOCCCOc2c(C(C)=O)ccc(OCCCC(=O)O)c2CCC)ccc(C(C)=O)c1O"
  Qualitative label: "no"
- Smiles record: "CCCc1c(OCCCOc2c(C(C)=O)ccc(OCC(=O)O)c2CCC)ccc(C(C)=O)c1O"
  Qualitative label: "yes"
- Smiles record: "CCCc1c(OCCCCCOc2c(C(C)=O)ccc(OCCCC(=O)O)c2CCC)ccc(C(C)=O)c1O"
  Qualitative label: "no"
- Smiles record: "CCCc1c(OCCOCCOCCOCCOc2c(C(C)=O)ccc(OCC(=O)O)c2CCC)ccc(C(C)=O)c1O"
  Qualitative label: "yes"
- Smiles record: "CCCc1c(OCCOCCOCCOc2c(C(C)=O)ccc(OCC(=O)O)c2CCC)ccc(C(C)=O)c1O"
  Qualitative label: "no"
- Smiles record: "CCCc1c(OCCOCCOc2c(C(C)=O)ccc(OCC(=O)O)c2CCC)ccc(C(C)=O)c1O"
  Qualitative label: "no"

Query string: Tell me whether Aerosol Duration of Action is at least 70 min here: CCCc1c(OCCCCCOc2c(C(C)=O)ccc(OCC(=O)O)c2CCC)ccc(C(C)=O)c1O
Result string: no
